From: PubChem BioAssay (NCATS)

- Measurement target: Rap guanine nucleotide exchange factor 4 (Homo sapiens) (UniProt Q8WZA2)
- Sequence (Q8WZA2 whole entry, looked up): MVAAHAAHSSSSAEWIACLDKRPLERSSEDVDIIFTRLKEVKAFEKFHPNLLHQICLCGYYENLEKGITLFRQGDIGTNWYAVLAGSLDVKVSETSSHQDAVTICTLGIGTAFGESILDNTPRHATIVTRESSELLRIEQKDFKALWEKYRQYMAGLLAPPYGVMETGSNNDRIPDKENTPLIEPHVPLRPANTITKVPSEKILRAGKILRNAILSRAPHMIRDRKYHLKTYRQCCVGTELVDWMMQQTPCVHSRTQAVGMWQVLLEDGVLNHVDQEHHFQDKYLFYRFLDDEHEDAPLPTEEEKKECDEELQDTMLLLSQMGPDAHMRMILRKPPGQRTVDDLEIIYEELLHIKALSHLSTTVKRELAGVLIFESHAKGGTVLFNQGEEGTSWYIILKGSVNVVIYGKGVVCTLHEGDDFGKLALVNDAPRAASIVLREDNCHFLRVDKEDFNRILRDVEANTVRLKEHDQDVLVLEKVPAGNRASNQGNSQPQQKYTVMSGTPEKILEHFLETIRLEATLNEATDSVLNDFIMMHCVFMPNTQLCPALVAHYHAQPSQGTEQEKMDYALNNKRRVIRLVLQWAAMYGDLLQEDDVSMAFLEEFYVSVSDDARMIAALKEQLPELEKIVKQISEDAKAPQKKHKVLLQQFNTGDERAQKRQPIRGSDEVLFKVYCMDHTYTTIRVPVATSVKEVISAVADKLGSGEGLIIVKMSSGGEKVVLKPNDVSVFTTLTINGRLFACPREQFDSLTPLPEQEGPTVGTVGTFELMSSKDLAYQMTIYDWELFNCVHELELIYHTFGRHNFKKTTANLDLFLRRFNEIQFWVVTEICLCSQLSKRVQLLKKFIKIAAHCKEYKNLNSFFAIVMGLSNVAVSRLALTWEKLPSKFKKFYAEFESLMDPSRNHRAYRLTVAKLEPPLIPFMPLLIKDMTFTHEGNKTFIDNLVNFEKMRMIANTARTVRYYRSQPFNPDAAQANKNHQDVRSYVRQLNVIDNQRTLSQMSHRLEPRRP
- Measurement notes: Confirmatory qHTS for antagonist of cAMP-regulated guanine nucleotide exchange factor 4 (EPAC2) (AID 1645885); note: nearly all actives have a fitted effect of over 25% in size
- Reported conditions: EPAC2 Rap1B-BODIPY-GDP exchange fluorescence, biochemical; series mostly up to 12.7 µM
Inconclusive results are not listed. Calls of active or inactive are those of the source. Calls come from the whole dose curve; as a rule, active = well fitted inhibition curve with a large enough effect; inconclusive = small, poorly fitted or top-dose-only effect; inactive = no such curve, though single readings can be large or run the other way.
Lab note: assign the record to one of Yes for active, No for inactive

Compound	Class assignment
O=C(c1cnccn1)N1CCC[C@@]2(CCN(c3cccc(-c4ccccc4)c3)C2)C1	No

Could you please tell me the result logged for C=CCn1c(=O)/c(=C/c2ccc(C)o2)s/c1=C(/C#N)C(=O)c1ccccc1 in this assay?
No

Which outcome was assigned to Cc1ccc(NS(=O)(=O)c2ccc(C(=O)N3CC(C)CC(C)C3)cc2)cc1 (stereo unspecified) in this test?
No

Given COc1ccc(-c2csc3nc(C)nc(N4CCCCC4)c23)cc1OC , state the outcome it received in this test.
No

I'd appreciate the recorded outcome for O=C(N/N=C/c1ccc(O)c([N+](=O)[O-])c1)C1CC1(c1ccccc1)c1ccccc1 (stereo unspecified) from this test.
No

State the result this test recorded for COc1cc(/C=N/NC(=O)c2cc(O)cc(O)c2)ccc1OC(=O)c1ccccc1 .
Yes

====

- Measurement target: Cytochrome P450 2C9 (Homo sapiens)
- Measurement notes: qHTS for inhibitors of CYP2C9 against the NCATS DSHEA and TCM libraries (AID 1919973)
- Reported conditions: recombinant CYP2C9 enzyme activity, luminescence; series mostly up to 34.1 µM
Inconclusive results are not listed. The source made the active and inactive calls. Calls come from the whole dose curve; as a rule, active = well fitted inhibition curve with a large enough effect; inconclusive = small, poorly fitted or top-dose-only effect; inactive = no such curve, though single readings can be large or run the other way.
# valid calls are 1 = active, 0 = inactive; nothing else

Example entries begin here.
Molecule	Class assignment
CC(C)c1ccc(C=O)cc1	0
CC(C)=CCC[C@](C)(OC1OC(COC2OCC(O)C(O)C2O)C(O)C(O)C1O)[C@H]1CC[C@]2(C)[C@@H]1[C@H](O)C[C@@H]1[C@@]3(C)CC[C@H](OC4OC(CO)C(O)C(O)C4OC4OC(CO)C(O)C(O)C4O)C(C)(C)[C@@H]3CC[C@]12C (stereo partly specified)	0
CC(C)=CCCC(C)(OC1OC(COC2OC(CO)C(O)C2O)C(O)C(O)C1O)C1CCC2(C)C1C(O)CC1C3(C)CCC(OC4OC(CO)C(O)C(O)C4OC4OC(CO)C(O)C(O)C4O)C(C)(C)C3CCC12C (stereo unspecified)	0
CC1(C)CC[C@]2(C(=O)O)CC[C@]3(C)C(=CCC4[C@@]5(C)CC[C@H](O)[C@@](C)(CO)C5CC[C@]43C)[C@H]2C1 (stereo partly specified)	0
CCCCCC(=O)CC	0

Please share the test call associated with CC(=O)OC1CC2CCC1(C)C2(C)C (stereo unspecified) .
0

Dear colleague, could you share the recorded outcome for CC12CC3(O)OC(O1)C1(COC(=O)c4ccc(O)cc4)C3CC21OC1OC(CO)C(O)C(O)C1O (stereo unspecified) when you have a moment?
0

So what was the verdict on CC(=O)O[C@H]1[C@H](O[C@H]2CC[C@]34C[C@]35CC[C@]3(C)[C@@H]([C@@]6(C)CC[C@@H](C(C)(C)O)O6)[C@@H](O)C[C@@]3(C)[C@@H]5C[C@H](O[C@@H]3O[C@H](CO)[C@@H](O)[C@H](O)[C@H]3O)[C@H]4C2(C)C)OC[C@@H](O)[C@@H]1O in this test?
0

State the result this test recorded for COc1ccc(/C=C/c2cc(OC)cc(=O)o2)cc1 .
0

Which outcome was entered for the molecule C=CCc1ccc(OC)c(OC)c1 in this test?
0

Give the logged outcome of this assay for the following molecule: CC(=O)OC/C=C/c1ccccc1
0

Look up the recorded call for C=C(C)C(CC=C(C)C)CC12CC(CC=C(C)C)C(C)(C)C(CC=C(C)C)(C(=O)/C(=C(\O)c3ccc(O)c(O)c3)C1=O)C2=O (stereo unspecified) in this test.
1

Tell me the assay call for COc1cc(/C=C/c2ccccc2)oc(=O)c1 please.
0

For O=C(/C=C/c1ccc(O)c(O)c1)O[C@@H]1C[C@](O)(C(=O)O)C[C@@H](O)[C@H]1O , what call appears in the results of this test?
0

Assay result, entry O=Cc1ccccc1O — outcome?
0

Status in this test for C=C1C[C@]23CC[C@H]4[C@@](C)(CCC[C@@]4(C)C(=O)O)[C@@H]2CC[C@@]1(O[C@@H]1O[C@H](CO)[C@@H](O)[C@H](O)[C@H]1O[C@@H]1O[C@H](CO)[C@@H](O)[C@H](O)[C@H]1O)C3 ?
0

====

- Measurement target: Phospholipid hydroperoxide glutathione peroxidase GPX4 (Homo sapiens) (UniProt P36969)
- Sequence (P36969 whole entry, looked up): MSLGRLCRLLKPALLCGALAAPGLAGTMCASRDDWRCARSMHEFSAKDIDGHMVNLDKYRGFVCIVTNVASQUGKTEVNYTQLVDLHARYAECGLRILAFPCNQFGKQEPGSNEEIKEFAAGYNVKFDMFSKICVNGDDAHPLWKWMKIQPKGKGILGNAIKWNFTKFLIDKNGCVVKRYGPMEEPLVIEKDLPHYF
- Measurement notes: Primary qHTS Assay for Inhibitors of Recombinant Selenoprotein Glutathione Peroxidase 4 (GPX4) (AID 1845192); note: nearly all actives have a fitted effect of over 65% in size
- Reported conditions: recombinant GPX4, GR-coupled NADPH fluorescence, 15 min; series mostly up to 50 µM
Records with an inconclusive call do not appear. Calls of active or inactive are those of the source. The call rests on the fitted dose curve; in most records, active means well fitted inhibition curve with a large enough effect; inconclusive means small, poorly fitted or top-dose-only effect; inactive means flat fitted curve, though single readings scatter.
Respond with a class label; see active, inactive

A selection of reference data follows.
Molecule	Class assignment
CN1CC(O)c2cc(N=NC(=N)N)c(O)cc21 (centres undefined)	inactive
CC(=O)OC1CCC2(C)C(=CCC3C2CCC2(C)C(c4cccnc4)=CCC32)C1 (centres undefined)	inactive
CCN1CCC(=C2c3ccccc3CCc3ccccc32)C1C (centres undefined)	inactive

Tell me the assay call for CC[C@H]1[C@@H](O)[C@@H]2[C@H](CC[C@]3(C)[C@@H]([C@H](C)CCC(=O)O)CC[C@@H]23)[C@@]2(C)CC[C@@H](O)C[C@@H]12 please.
active

Query: recorded result category for CCCCCC(O)/C=C/[C@@H]1C(CCCCCCC(=O)O)C(=O)C[C@@H]1O (some centres undefined) in this test
inactive

What did this assay record as the result for CCCCCCCCCCCC(=O)OCN1C(=O)CCc2ccc(OCCCCN3CCN(c4cccc(Cl)c4Cl)CC3)cc21 ?
inactive

In this assay, the call recorded for CC[C@H](C)[C@@H]([C@@H](CC(=O)N1CCC[C@H]1[C@H](OC)[C@@H](C)C(=O)NCCc1ccccc1)OC)N(C)C(=O)[C@@H](NC(=O)[C@H](C(C)C)N(C)C)C(C)C was what?
inactive

Tell me the assay call for C[N+](C)(C)C1CCC(CC2CCC([N+](C)(C)C)CC2)CC1 (centres undefined) please.
inactive

Which outcome did this test record for the molecule O[C@@H]1[C@@H](O)[C@@H](O)OC[C@@H]1O ?
inactive

====

- Measurement notes: Cell Viability - HepG2 (AID 433);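 note: cells exposed to compound for 40 hours; potency for ATP loss meaning cytotoxicity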
- Reported conditions: qHTS
Inconclusive results are not listed. Calls of active or inactive are those of the source. The call rests on the fitted dose curve.
Thanks in advance; please answer with one of these: active, inactive

Compound	Class assignment
c1ccc2c(c1)[nH]c1ccccc12	inactive

Tell me the recorded outcome of this test for CCO[Si](CCCN)(OCC)OCC .
inactive

Which outcome did this test record for the compound S=C1NC=NC2N=CNC12 (configuration not stated) ?
active

What call does the record list for ClCCCl ?
inactive

Recorded test call requested for Cc1ccccc1C
inactive

Outcome logged for O=C(O)c1ccc(O)cc1O in this assay:
inactive

Just curious, what result did C=CC(=C)CCC=C(C)C get here?
inactive

Outcome logged for C=CCOC(=O)c1ccccc1C(=O)OCC=C in this assay:
inactive

GET /call?item= C/C=C\c1ccc(OC)cc1 returns the recorded outcome of this test.
inactive

Kindly provide the recorded test outcome for the following compound: C=Cc1ccccc1Cl
inactive

In this assay, the call recorded for CC1=CC(C)(C)Nc2ccccc21 was what?
inactive

====

- Tested on: P94_40
- Measurement notes: qHTS profiling for inhibitors of Plasmodium falciparum proliferation (AID 504749); note: nearly all actives have a fitted effect of over 60% in size
- Reported conditions: P. falciparum in erythrocytes, SYBR Green DNA, 72 h; series mostly up to 28.7 µM
Inconclusive results are not listed. The source made the active and inactive calls. Calls come from the whole dose curve; as a rule, active = well fitted inhibition curve with a large enough effect; inconclusive = small, poorly fitted or top-dose-only effect; inactive = flat fitted curve, though single readings scatter. Bridge positions count the residues as written; N and C are the ends. Square brackets hold non-standard residues; d marks the D form. Peptide text beside a SMILES is read from it. * marks the point of attachment. Octanoyl(6-Me) = CCC(C)CCCCC(=O)*; Dab = NCC[CH](N)C(=O)O
Hi there, use one of these labels in your reply, thanks! 1.0 (active), 0.0 (inactive)

Example results:
Compound	Measurement target	Class assignment
O=C(O)c1cc(O)c2c(c1)[C@H]([C@H]1c3cc(C(=O)O)cc(O)c3C(=O)c3c(O[C@@H]4OC(CO)C(O)C(O)C4O)cccc31)c1cccc(O[C@@H]3OC(CO)C(O)C(O)C3O)c1C2=O (stereo partly drawn)	P94_40	0.0
CCC(C)CCCCC(=O)NC(CCN)C(=O)NC(C(=O)NC(CCN)C(=O)NC1CCNC(=O)C(C(C)O)NC(=O)C(CCN)NC(=O)C(CCN)NC(=O)C(CC(C)C)NC(=O)C(Cc2ccccc2)NC(=O)C(CCN)NC1=O)C(C)O (stereo not drawn) ({Octanoyl(6-Me)}-[Dab]T[Dab][Dab][Dab]FL[Dab][Dab]T; lactam 4-C; configuration not given here)	P94_40	0.0

Proceed to the following item.
Assay outcome for CN1CC[C@H](CN2c3ccccc3Sc3ccccc32)C1 : what was it?
1.0
